Taken from PubChem BioAssay AID504444.

ASSAY EXPLANATION: Nrf2 qHTS screen for inhibitors; note: nearly all actives have a fitted effect of over 60% in size
ASSAY SETUP: A549 ARE-Fluc reporter, luciferase luminescence, 18-24 h; series mostly up to 46 µM
About 7,500 (2.1%) of roughly 360,000 compounds were called active. About 20% were inconclusive and are not listed. Calls come from the whole dose curve; as a rule, active = well fitted inhibition curve with a large enough effect; inconclusive = small, poorly fitted or top-dose-only effect, or effect the other way; inactive = flat fitted curve, though single readings scatter. The sample holds actives, similar compounds and a random draw of the others, so the mix is not that of the screen.
Pick from 1.0 for active, 0.0 for inactive when you respond.

Short answer needed: outcome of this test for O=C(Nc1cc(-c2ccccc2)nn1-c1ccccc1F)c1ccc([N+](=O)[O-])cc1 ?
1.0

And for COc1cc(CN(CC2CCCO2)C(=O)c2ccccc2F)cc(OC)c1OC (stereo not drawn) ?
0.0

And for O=C(C1CCCN(S(=O)(=O)c2ccccc2)C1)N1CCN(c2ccc(F)cc2)CC1 (stereo not drawn) ?
1.0
